# study.system: EGFR (Homo sapiens, UniProt P00533)
# experimental.details: Selective-inhibition assay in DHER14 cells (receptor phosphotyrosine, Western blot)
# condition.label: DHER14 cells expressing EGFR, 1 hour incubation, EGF stimulation
Listed next: entries and their corresponding IC50.

given.smiles	reported.endpoint	endpoint.result
O=C(CCl)Nc1ccc2ncnc(Nc3cc(Cl)c(Cl)cc3F)c2c1	IC50	0.005 to 0.015 µM

Field IC50 (entry COCC(=O)Nc1ccc2ncnc(Nc3cc(Cl)c(Cl)cc3F)c2c1 ) reads > 0.25 µM

###

Listed next: entries and their corresponding IC50.
# study.system: EGFR-TK (Homo sapiens)
# Construct: The supernatant, which contained the EGFR, was collected and frozen; endogenous in cells; host or cells: A431 cells (A1: Triton X-100 lysate captured on mAb108; A2: intact cells)
# Sequence (P00533 25-1210): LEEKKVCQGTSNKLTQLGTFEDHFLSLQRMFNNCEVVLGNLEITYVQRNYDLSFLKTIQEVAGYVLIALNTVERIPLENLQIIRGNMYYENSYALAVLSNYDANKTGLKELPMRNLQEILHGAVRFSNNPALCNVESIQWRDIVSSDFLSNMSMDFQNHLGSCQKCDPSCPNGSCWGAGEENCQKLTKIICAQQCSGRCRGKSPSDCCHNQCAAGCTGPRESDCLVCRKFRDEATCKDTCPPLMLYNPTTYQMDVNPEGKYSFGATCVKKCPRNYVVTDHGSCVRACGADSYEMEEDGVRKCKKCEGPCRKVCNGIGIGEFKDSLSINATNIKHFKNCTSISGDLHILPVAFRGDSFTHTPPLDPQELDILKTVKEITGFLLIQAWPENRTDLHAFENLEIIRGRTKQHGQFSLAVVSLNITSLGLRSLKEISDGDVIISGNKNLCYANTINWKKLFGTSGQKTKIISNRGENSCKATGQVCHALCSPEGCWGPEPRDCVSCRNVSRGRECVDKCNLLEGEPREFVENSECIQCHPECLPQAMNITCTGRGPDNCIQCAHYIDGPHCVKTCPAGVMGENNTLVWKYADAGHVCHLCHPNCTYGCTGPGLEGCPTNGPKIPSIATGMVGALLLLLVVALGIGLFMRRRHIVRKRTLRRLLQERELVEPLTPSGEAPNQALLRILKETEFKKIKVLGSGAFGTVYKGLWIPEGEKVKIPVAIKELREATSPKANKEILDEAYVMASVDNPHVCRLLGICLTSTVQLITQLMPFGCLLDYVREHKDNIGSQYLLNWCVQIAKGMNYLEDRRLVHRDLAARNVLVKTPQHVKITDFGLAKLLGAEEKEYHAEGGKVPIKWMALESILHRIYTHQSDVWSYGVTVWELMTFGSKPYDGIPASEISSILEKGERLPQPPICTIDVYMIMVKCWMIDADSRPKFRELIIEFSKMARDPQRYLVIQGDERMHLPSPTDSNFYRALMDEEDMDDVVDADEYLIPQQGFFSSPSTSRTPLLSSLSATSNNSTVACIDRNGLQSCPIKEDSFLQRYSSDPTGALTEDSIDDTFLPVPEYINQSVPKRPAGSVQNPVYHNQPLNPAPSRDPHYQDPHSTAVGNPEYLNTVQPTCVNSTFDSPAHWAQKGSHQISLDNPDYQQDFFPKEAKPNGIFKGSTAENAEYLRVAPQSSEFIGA
# experimental.details: EGFR-TK autophosphorylation inhibition in intact A431 cells (irreversibility assay, Western blot)
# Format: cell-based
# condition.label: Intact A431 cells IC50 range (8 hr post incubation with inhibitor), 1 hour incubation, then 8 hours in inhibitor-free medium before EGF stimulation

Here are 2 molecules together with their reported answers.
molecule	reported.endpoint	endpoint.result
COCC(=O)Nc1ccc2ncnc(Nc3cccc(I)c3)c2c1 [drawing 18]	IC50	> 80000 nM
COCC(=O)Nc1ccc2ncnc(Nc3cc(Cl)c(Cl)cc3F)c2c1 [drawing 20]	IC50	10000 to 50000 nM

Field IC50 (entry O=C(CCl)Nc1ccc2ncnc(Nc3cc(Cl)c(Cl)cc3F)c2c1 [drawing 19] ) reads 1 to 20 nM

Field IC50 (entry C=CC(=O)Nc1ccc2ncnc(Nc3cc(Cl)c(Cl)cc3F)c2c1 [drawing 14] ) reads 5 to 50 nM
